- System: HCT116 isogenic IDH1-R132H mutant cells
- EXPERIMENT: Cellular 2-HG assay using HCT116 mutant IDH1 cells (R132H)
- Assay type: cell-based
- EXPERIMENTAL CONTEXT: Homo sapiens, HCT-116; cellular 2-HG inhibition, 24 hours, RapidFire mass spectrometry; read-out: HCT116 IDH1 R132H IC50 Range
Reported IC50 values follow for various compounds
VALUE TYPE: IC50

smiles=COc1cc(NCc2cc3cc(Cl)ccc3[nH]c2=O)ccc1C#N system_under_test="HCT116 isogenic IDH1-R132H mutant cells" observed_value="100 to 1000 nM"
smiles=COc1cc(N[C@@H](C)c2cc3cc(Cl)ccc3[nH]c2=O)ccc1C#N system_under_test="HCT116 isogenic IDH1-R132H mutant cells" observed_value="< 10 nM"

* * *

- SYSTEM UNDER TEST: IDH1-R132H recombinant protein (Homo sapiens, UniProt O75874, R132H)
- Sequence (O75874 whole entry R132H): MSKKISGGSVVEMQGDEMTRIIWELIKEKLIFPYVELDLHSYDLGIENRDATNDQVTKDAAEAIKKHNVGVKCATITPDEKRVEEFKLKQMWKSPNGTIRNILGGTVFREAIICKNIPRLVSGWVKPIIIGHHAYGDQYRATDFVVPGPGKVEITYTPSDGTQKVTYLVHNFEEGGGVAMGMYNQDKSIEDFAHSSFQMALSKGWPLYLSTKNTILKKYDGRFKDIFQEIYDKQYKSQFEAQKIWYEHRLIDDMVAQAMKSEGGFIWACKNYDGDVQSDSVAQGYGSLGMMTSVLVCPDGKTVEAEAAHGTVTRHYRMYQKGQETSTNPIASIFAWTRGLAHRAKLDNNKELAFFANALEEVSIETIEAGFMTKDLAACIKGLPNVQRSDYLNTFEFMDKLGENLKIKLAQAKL
- EXPERIMENT: IDH1-R132H enzymatic assay (NADPH consumption, diaphorase/resazurin readout)
- Assay type: biochemical
- EXPERIMENTAL CONTEXT: read-out: Enzyme IDH1 R132H IC50 Range
Reported IC50 values follow for various molecules
VALUE TYPE: IC50

molecule="O=c1[nH]c2ccc(Cl)cc2cc1CNc1ccccc1F [Compound I-46]" system_under_test="IDH1-R132H recombinant protein (Homo sapiens, UniProt O75874, R132H)" value_type=IC50 observed_value="> 1000 nM"
molecule="COc1cc(N[C@@H](C)c2cc3cc(Cl)ccc3[nH]c2=O)ccc1S(C)(=O)=O [Compound I-6]" system_under_test="IDH1-R132H recombinant protein (Homo sapiens, UniProt O75874, R132H)" value_type=IC50 observed_value="> 1000 nM"
molecule="COc1cc(NCc2cc3ccc(O)cc3[nH]c2=O)ccc1C#N [Compound I-30]" system_under_test="IDH1-R132H recombinant protein (Homo sapiens, UniProt O75874, R132H)" value_type=IC50 observed_value="100 to 1000 nM"
molecule="COc1cc(NCc2cc3cc(Cl)ccc3[nH]c2=O)ccc1-n1cnnn1 [Compound I-33]" system_under_test="IDH1-R132H recombinant protein (Homo sapiens, UniProt O75874, R132H)" value_type=IC50 observed_value="100 to 1000 nM"
molecule="COc1cc(NCc2cc3cc(Cl)c(OCc4ccccc4)cc3[nH]c2=O)ccc1C#N [Compound I-71]" system_under_test="IDH1-R132H recombinant protein (Homo sapiens, UniProt O75874, R132H)" value_type=IC50 observed_value="10 to 100 nM"
molecule="COc1cc(NCc2cc3cc(Cl)c(OCc4nc(C(N)=O)no4)cc3[nH]c2=O)ccc1C#N [Compound I-79]" system_under_test="IDH1-R132H recombinant protein (Homo sapiens, UniProt O75874, R132H)" value_type=IC50 observed_value="10 to 100 nM"
molecule="COc1cc(NCc2cc3ccc(C)cc3[nH]c2=O)ccc1C#N [Compound I-54]" system_under_test="IDH1-R132H recombinant protein (Homo sapiens, UniProt O75874, R132H)" value_type=IC50 observed_value="100 to 1000 nM"
molecule="COc1cc(NCc2cc3cc(Cl)cc(OCCN4CCCC4)c3[nH]c2=O)ccc1C#N [Compound I-100]" system_under_test="IDH1-R132H recombinant protein (Homo sapiens, UniProt O75874, R132H)" value_type=IC50 observed_value="100 to 1000 nM"
molecule="COc1cc(NCc2cc3cc(Cl)c(OCCN4CCCC4=O)cc3[nH]c2=O)ccc1C#N [Compound I-86]" system_under_test="IDH1-R132H recombinant protein (Homo sapiens, UniProt O75874, R132H)" value_type=IC50 observed_value="10 to 100 nM"
molecule="COc1cc(NCc2cc3cc(C)ccc3[nH]c2=O)ccc1-n1cnnn1 [Compound I-16]" system_under_test="IDH1-R132H recombinant protein (Homo sapiens, UniProt O75874, R132H)" value_type=IC50 observed_value="100 to 1000 nM"
molecule="COc1cc(NCc2cc3cc(C(F)(F)F)ccc3[nH]c2=O)ccc1C#N [Compound I-25]" system_under_test="IDH1-R132H recombinant protein (Homo sapiens, UniProt O75874, R132H)" value_type=IC50 observed_value="10 to 100 nM"
molecule="CCOCCOc1cc2[nH]c(=O)c(CNc3ccc(C#N)c(OC)c3)cc2cc1Cl [Compound I-93]" system_under_test="IDH1-R132H recombinant protein (Homo sapiens, UniProt O75874, R132H)" value_type=IC50 observed_value="100 to 1000 nM"
molecule="COc1cc(NCc2cc3cc(Cl)c(OCCCN4CCCC4)cc3[nH]c2=O)ccc1C#N [Compound I-83]" system_under_test="IDH1-R132H recombinant protein (Homo sapiens, UniProt O75874, R132H)" value_type=IC50 observed_value="10 to 100 nM"
molecule="Cc1nnnn1-c1ccc(NCc2cc3cc(Cl)ccc3[nH]c2=O)cc1 [Compound I-38]" system_under_test="IDH1-R132H recombinant protein (Homo sapiens, UniProt O75874, R132H)" value_type=IC50 observed_value="100 to 1000 nM"
molecule="NC(=O)c1ccccc1NCc1cc2cc(Cl)ccc2[nH]c1=O [Compound I-40]" system_under_test="IDH1-R132H recombinant protein (Homo sapiens, UniProt O75874, R132H)" value_type=IC50 observed_value="> 1000 nM"
molecule="COc1cc(NCc2cc3cc(Cl)c(OCC(N)=O)cc3[nH]c2=O)ccc1C#N [Compound I-68]" system_under_test="IDH1-R132H recombinant protein (Homo sapiens, UniProt O75874, R132H)" value_type=IC50 observed_value="10 to 100 nM"
molecule="COc1cc(NCc2cc3ccc(C)cc3[nH]c2=O)ccc1-n1cnnn1 [Compound I-22]" system_under_test="IDH1-R132H recombinant protein (Homo sapiens, UniProt O75874, R132H)" value_type=IC50 observed_value="100 to 1000 nM"
molecule="COc1cc(NCc2cc3cc(Cl)ccc3[nH]c2=O)ccc1Cl [Compound I-44]" system_under_test="IDH1-R132H recombinant protein (Homo sapiens, UniProt O75874, R132H)" value_type=IC50 observed_value="> 1000 nM"

Where do these numbers come from? They come from patent US10266495B2.
